Form field: EC50 (one value per entry).
Target: F508delCFTR (Homo sapiens, UniProt P13569, DEL508-508)
Construct: expressed in transfected cells; host or cells: CFBE41o- human lung derived epithelial cells (CFBE41o-F508delCFTR-HRP), doxycycline-inducible
Sequence (P13569 with tags, fused parts or gaps DEL508-508): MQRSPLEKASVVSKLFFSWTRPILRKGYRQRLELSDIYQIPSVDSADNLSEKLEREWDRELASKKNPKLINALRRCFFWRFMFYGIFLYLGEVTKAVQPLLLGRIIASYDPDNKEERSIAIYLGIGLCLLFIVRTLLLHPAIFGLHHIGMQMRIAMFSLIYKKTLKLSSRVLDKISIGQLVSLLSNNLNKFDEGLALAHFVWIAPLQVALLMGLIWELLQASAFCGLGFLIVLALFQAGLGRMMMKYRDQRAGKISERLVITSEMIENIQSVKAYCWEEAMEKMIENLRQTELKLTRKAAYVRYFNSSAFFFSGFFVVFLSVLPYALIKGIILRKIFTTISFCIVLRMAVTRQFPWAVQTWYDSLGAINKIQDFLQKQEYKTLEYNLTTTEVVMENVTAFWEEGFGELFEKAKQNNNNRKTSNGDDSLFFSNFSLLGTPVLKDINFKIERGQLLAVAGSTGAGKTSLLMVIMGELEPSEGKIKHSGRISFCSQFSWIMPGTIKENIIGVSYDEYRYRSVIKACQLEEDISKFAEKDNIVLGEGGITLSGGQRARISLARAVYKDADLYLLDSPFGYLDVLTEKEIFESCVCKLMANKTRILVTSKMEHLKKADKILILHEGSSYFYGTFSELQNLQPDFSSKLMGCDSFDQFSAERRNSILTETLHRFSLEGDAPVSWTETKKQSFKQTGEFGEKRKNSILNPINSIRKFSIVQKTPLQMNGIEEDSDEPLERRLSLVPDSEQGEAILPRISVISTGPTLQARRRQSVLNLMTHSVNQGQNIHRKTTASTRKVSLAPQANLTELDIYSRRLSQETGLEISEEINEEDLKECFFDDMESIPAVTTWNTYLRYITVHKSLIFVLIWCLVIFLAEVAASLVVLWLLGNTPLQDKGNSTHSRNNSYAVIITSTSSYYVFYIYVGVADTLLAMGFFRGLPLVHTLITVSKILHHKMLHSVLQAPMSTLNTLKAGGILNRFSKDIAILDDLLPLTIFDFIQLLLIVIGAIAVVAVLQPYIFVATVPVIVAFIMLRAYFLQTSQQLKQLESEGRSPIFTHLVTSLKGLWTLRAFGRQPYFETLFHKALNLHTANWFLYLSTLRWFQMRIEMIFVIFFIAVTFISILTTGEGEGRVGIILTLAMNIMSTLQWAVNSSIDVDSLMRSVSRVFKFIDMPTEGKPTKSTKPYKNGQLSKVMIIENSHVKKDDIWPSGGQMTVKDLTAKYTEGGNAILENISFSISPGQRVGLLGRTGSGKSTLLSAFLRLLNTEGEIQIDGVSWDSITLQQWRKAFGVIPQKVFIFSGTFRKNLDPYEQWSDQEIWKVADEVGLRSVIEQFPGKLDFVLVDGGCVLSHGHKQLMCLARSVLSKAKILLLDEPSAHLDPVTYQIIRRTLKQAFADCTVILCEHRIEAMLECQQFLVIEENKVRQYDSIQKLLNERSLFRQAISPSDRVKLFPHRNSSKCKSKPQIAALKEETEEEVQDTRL
Test: Cell Surface Expression-Horse Radish Peroxidase (CSE-HRP) Assay
Format: cell-based
Settings: test compound without co-corrector; read-out: EC50 (without co-corrector)
Protocol: A cellular assay for measuring the F508delCFTR cell surface expression after correction with test compounds either without or with a co-corrector (2 μM of 3-[(2R,4R)-4-({[1-(2,2-difluoro-1,3-benzodioxol-5-yl)cyclopropyl]carbonyl}amino)-7-methoxy-3,4-dihydro-2H-chromen-2-yl]benzoic acid), was developed in human lung derived epithelial cell line (CFBE4lo−) (Veit G et al, (2012) Mol Biol Cell. 23(21): 4188-4202). […] The raw counts from the experiment were analyzed using Accelrys® Assay Explorer v3.3. […]
Assay Readout: EC50

| Compound | Assay Readout | Assay Result |
| --- | --- | --- |
| CCc1cnc(N2CCC(COC)CC2)c(C2(C(=O)NS(=O)(=O)c3cccc4[nH]ccc34)CC2)c1 [Example GI-120] | EC50 | 3 to 10 µM |
| COCC1(c2cnc(OC(C)C)c(C3(C(=O)NS(=O)(=O)c4cccc5ccccc45)CC3)c2)CC1 [Example GI-119] | EC50 | < 3 µM |
| CC(C)Oc1ncc(N2CCCC2)cc1C1(C(=O)NS(=O)(=O)c2cccc3[nH]ccc23)CC1 [Example GI-64] | EC50 | < 3 µM |
| Cc1ccc2c(S(=O)(=O)NC(=O)C3(c4cc(C5CC5)cnc4N4CCCC4)CC3)cccc2n1 [Example GI-33] | EC50 | 3 to 10 µM |
| Cc1cnc(N2CCCC2)c(C2(C(=O)NS(=O)(=O)c3cccc4nc(C)ccc34)CC2)c1 [GII-36] | EC50 | 3 to 10 µM |
| COc1nc(C(F)(F)F)ccc1C1(C(=O)NS(=O)(=O)c2cccc3c2CCCN3)CC1 [GII-12] | EC50 | 3 to 10 µM |
| COCCOc1ncc(C)cc1C1(C(=O)NS(=O)(=O)c2cccc3ncccc23)CC1 [GII-52] | EC50 | 3 to 10 µM |
| O=C(NS(=O)(=O)c1cccc2ncccc12)C1(c2cc(C3CCC3)cnc2OCC2CC2)CC1 [Example GI-100] | EC50 | < 3 µM |
